Assay comment: Hepatocyte stability in vitro
Assay type: in vitro ADME
Measurement parameters: hepatocytes; Table 8

>  <Compound>
COc1ccc2nc3cc(Cl)ccc3c(Nc3ccc(O)c(CN4CCN(C)CC4)c3)c2c1 [Compound F06, reference compound]

>  <CLint scaled>
< 17.8 mL/min/kg

$$$$

* * *

Some compounds, each annotated with its measured IC50.
Test system: ERCC1-XPF (Homo sapiens, UniProt Q92889)
Construct: His6; made in house; host or cells: E. coli BL21 (DE3)
Sequence (Q92889 whole entry): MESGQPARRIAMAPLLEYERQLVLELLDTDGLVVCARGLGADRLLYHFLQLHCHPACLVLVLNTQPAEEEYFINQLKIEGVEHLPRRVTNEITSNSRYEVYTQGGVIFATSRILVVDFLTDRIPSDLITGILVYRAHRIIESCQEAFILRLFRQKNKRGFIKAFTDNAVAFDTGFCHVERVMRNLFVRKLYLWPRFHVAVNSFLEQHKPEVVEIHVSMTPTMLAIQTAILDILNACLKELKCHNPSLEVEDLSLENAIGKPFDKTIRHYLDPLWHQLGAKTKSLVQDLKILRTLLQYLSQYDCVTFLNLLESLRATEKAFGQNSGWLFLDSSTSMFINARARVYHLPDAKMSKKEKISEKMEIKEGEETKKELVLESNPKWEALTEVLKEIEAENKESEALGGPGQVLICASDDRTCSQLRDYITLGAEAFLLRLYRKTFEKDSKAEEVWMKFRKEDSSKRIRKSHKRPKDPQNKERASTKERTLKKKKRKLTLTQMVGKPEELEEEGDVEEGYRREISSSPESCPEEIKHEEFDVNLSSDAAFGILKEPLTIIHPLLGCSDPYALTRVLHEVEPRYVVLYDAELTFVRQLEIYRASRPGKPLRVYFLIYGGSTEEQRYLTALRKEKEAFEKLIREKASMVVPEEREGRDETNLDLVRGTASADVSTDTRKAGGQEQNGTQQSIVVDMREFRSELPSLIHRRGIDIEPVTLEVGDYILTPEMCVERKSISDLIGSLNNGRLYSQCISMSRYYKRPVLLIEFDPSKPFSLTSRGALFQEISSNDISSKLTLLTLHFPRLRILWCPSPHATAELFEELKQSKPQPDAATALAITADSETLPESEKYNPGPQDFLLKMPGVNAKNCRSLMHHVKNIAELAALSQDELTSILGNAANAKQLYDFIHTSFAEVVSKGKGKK
Assay comment: Microplate fluorescence incision assay of ERCC1-XPF endonuclease activity
Format: biochemical
Measurement parameters: full-length ERCC1-XPF; 30 minutes incubation, 5% DMSO; read-out: IC50 of ERCC1-XPF endonuclease activity

>  <Compound>
COc1ccc2nc3cc(Cl)ccc3c(Nc3ccc(O)c(CN4CCN(CCN(C(C)C)C(C)C)CC4)c3)c2c1 [Gen C-1]

>  <IC50 (nM)>
167

$$$$
>  <Compound>
CN(C)CCN1CCN(Cc2cc(Nc3c4ccc(Cl)cc4nc4ccc(O)cc34)ccc2O)CC1 [Gen B9]

>  <IC50 (nM)>
490

$$$$

* * *

Test system: ERCC1-XPF complex (Homo sapiens)
Construct: His6; made in house; host or cells: E. coli BL21 (DE3)
Sequence (Q92889 whole entry, one chain of several): as the sequence (Q92889 whole entry) above
Assay comment: Steady-state intrinsic tryptophan fluorescence quenching binding assay
Measurement parameters: Table 6; read-out: Kd ± SD
pKd: −log10 of the molar value.
Parameter: pKd

>  <Molecule>
COc1ccc2nc3cc(Cl)ccc3c(Nc3ccc(O)c(CN4CCN(C5CCCCC5)CC4)c3)c2c1

>  <Parameter>
pKd

>  <Recorded number>
6.84

$$$$
>  <Molecule>
COc1ccc2nc3cc(Cl)ccc3c(Nc3ccc(O)c(CN4CCN(C)CC4)c3)c2c1 [Compound F06, reference compound]

>  <Parameter>
pKd

>  <Recorded number>
6.85

$$$$

* * *

Assay comment: ADME screening: solubility
Format: physicochemical
Measurement parameters: Table 8; <1.56 means below lower limit of quantilation

>  <Molecule>
COc1ccc2nc3cc(Cl)ccc3c(Nc3ccc(O)c(CN4CCN(C)CC4)c3)c2c1 [Compound F06, reference compound]

>  <Units text>
µM

>  <solubility>
8.13

$$$$

* * *

Assay comment: Microsomal stability in vitro (human liver microsomes)
Measurement parameters: human, liver microsomes

>  <Compound>
COc1ccc2nc3cc(Cl)ccc3c(Nc3ccc(O)c(CN4CCN(C)CC4)c3)c2c1 [Compound F06, reference compound]

>  <CLint scaled / mL/min/kg>
53.7

$$$$

* * *

Assay comment: ADME screening: cell permeability and efflux ratio
Measurement parameters: not told, efflux ratio

>  <Compound>
COc1ccc2nc3cc(Cl)ccc3c(Nc3ccc(O)c(CN4CCN(C)CC4)c3)c2c1 [Compound F06, reference compound]

>  <efflux ratio>
11.2

$$$$

* * *

Assay comment: ADME screening: LogD
Measurement parameters: pH 7.4
Parameter: logD

>  <Compound>
COc1ccc2nc3cc(Cl)ccc3c(Nc3ccc(O)c(CN4CCN(CCN(C(C)C)C(C)C)CC4)c3)c2c1

>  <Recorded number>
3.95

$$$$
>  <Compound>
CN(C)CCN1CCN(Cc2cc(Nc3c4ccc(Cl)cc4nc4ccc(O)cc34)ccc2O)CC1

>  <Recorded number>
2.01

$$$$
>  <Compound>
COc1ccc2nc3cc(Cl)ccc3c(Nc3cc(CN4CCCC4)c(O)c(CN4CCCC4)c3)c2n1 [Compound D4, pyronaridine, reference compound]

>  <Recorded number>
2.31

$$$$
